The values you see were collected from ChEMBL document CHEMBL3758109.

Assay: Cytotoxicity against human MIAPaCa2 cells assessed as cell growth inhibition after 48 hrs by MTT assay
Format: functional, cell-based
Condition label: MIA PaCa-2, 48 h
Quantity: IC50 (µM)
The reply should be a number in µM, with the unit left off.

Exercise: What measured IC50 goes with C=C(C)[C@@H]1CC[C@]2(C(=O)OCc3cn(-c4ccc(OC)cc4)nn3)CC[C@]3(C)[C@H](CC[C@@H]4[C@@]5(C)CC[C@H](O)C(C)(C)[C@@H]5CC[C@]43C)[C@@H]12 ?
Key: 22

* * *

Entries annotated with measured inhibition of growth at 10 µM
Assay: Cytotoxicity against human PC3 cells assessed as cell growth inhibition at 10 uM after 48 hrs by MTT assay
Type: functional
Condition label: PC-3, 48 h, read-out: GI

Exercise: What measured inhibition of growth at 10 µM goes with C=C(C)[C@@H]1CC[C@]2(C(=O)OCc3cn(-c4cccc(OCc5ccc(F)cc5)c4)nn3)CC[C@]3(C)[C@H](CC[C@@H]4[C@@]5(C)CC[C@H](O)C(C)(C)[C@@H]5CC[C@]43C)[C@@H]12 ?
Key: 4%

Exercise: Now this one: C=C(C)[C@@H]1CC[C@]2(C(=O)OCc3cn(-c4cccc([N+](=O)[O-])c4)nn3)CC[C@]3(C)[C@H](CC[C@@H]4[C@@]5(C)CC[C@H](O)C(C)(C)[C@@H]5CC[C@]43C)[C@@H]12
Key: 10%

Exercise: Now this one: C=C(C)[C@@H]1CC[C@]2(C(=O)OCc3cn(-c4ccccc4C#N)nn3)CC[C@]3(C)[C@H](CC[C@@H]4[C@@]5(C)CC[C@H](OCc6cn(-c7ccccc7C#N)nn6)C(C)(C)[C@@H]5CC[C@]43C)[C@@H]12
Key: 15%

Exercise: Now this one: C=C(C)[C@@H]1CC[C@]2(C(=O)OCc3cn(-c4ccc(OCCC)c(Cl)c4)nn3)CC[C@]3(C)[C@H](CC[C@@H]4[C@@]5(C)CC[C@H](O)C(C)(C)[C@@H]5CC[C@]43C)[C@@H]12
Key: 7%

Exercise: Now this one: C#CCOC(=O)[C@]12CC[C@@H](C(=C)C)[C@@H]1[C@H]1CC[C@@H]3[C@@]4(C)CC[C@H](O)C(C)(C)[C@@H]4CC[C@@]3(C)[C@]1(C)CC2
Key: 46%

* * *

Entries annotated with measured pIC50
Assay: Cytotoxicity against human MIAPaCa2 cells assessed as cell growth inhibition after 48 hrs by MTT assay
Type: functional, cell-based
Condition label: MIA PaCa-2, 48 h
pIC50 here is simply -log10 of the concentration when that concentration is written in mol/L.

Here are 2 molecules together with their reported answers.
Smiles representation	Reported value
C=C(C)[C@@H]1CC[C@]2(C(=O)OCc3cn(-c4ccc(C#N)cc4)nn3)CC[C@]3(C)[C@H](CC[C@@H]4[C@@]5(C)CC[C@H](O)C(C)(C)[C@@H]5CC[C@]43C)[C@@H]12	5.10
C=C(C)[C@@H]1CC[C@]2(C(=O)OCc3cn(-c4ccc(F)cc4)nn3)CC[C@]3(C)[C@H](CC[C@@H]4[C@@]5(C)CC[C@H](O)C(C)(C)[C@@H]5CC[C@]43C)[C@@H]12	5.30

Next up:
Exercise: What measured pIC50 goes with C=C(C)[C@@H]1CC[C@]2(C(=O)OCc3cn(-c4ccc(Br)cc4)nn3)CC[C@]3(C)[C@H](CC[C@@H]4[C@@]5(C)CC[C@H](O)C(C)(C)[C@@H]5CC[C@]43C)[C@@H]12 ?
Key: 5.15

* * *

Entries annotated with measured inhibition of growth at 10 µM
Assay: Cytotoxicity against human PC3 cells assessed as cell growth inhibition at 10 uM after 48 hrs by MTT assay
Format: functional
Condition label: PC-3, 48 h, read-out: GI
The reply should be a number in %, with the unit left off.

Here are 3 compounds together with their reported answers.
Smiles representation	Quantity unit	inhibition of growth at 10 µM
C=C(C)[C@@H]1CC[C@]2(C(=O)OCc3cn(-c4ccc(OC)cc4)nn3)CC[C@]3(C)[C@H](CC[C@@H]4[C@@]5(C)CC[C@H](O)C(C)(C)[C@@H]5CC[C@]43C)[C@@H]12	%	2
C=C(C)[C@@H]1CC[C@]2(C(=O)OCc3cn(-c4cc(F)c(F)cc4Br)nn3)CC[C@]3(C)[C@H](CC[C@@H]4[C@@]5(C)CC[C@H](O)C(C)(C)[C@@H]5CC[C@]43C)[C@@H]12	%	17
C=C(C)[C@@H]1CC[C@]2(C(=O)OCc3cn(-c4ccc(Br)cc4)nn3)CC[C@]3(C)[C@H](CC[C@@H]4[C@@]5(C)CC[C@H](O)C(C)(C)[C@@H]5CC[C@]43C)[C@@H]12	%	45

Exercise: What measured inhibition of growth at 10 µM goes with C=C(C)[C@@H]1CC[C@]2(C(=O)OCc3cn(-c4cccnc4Cl)nn3)CC[C@]3(C)[C@H](CC[C@@H]4[C@@]5(C)CC[C@H](O)C(C)(C)[C@@H]5CC[C@]43C)[C@@H]12 ?
Key: 30

Exercise: Now this one: C=C(C)[C@@H]1CC[C@]2(C(=O)OCc3cn(-c4cc(C)ccc4C)nn3)CC[C@]3(C)[C@H](CC[C@@H]4[C@@]5(C)CC[C@H](O)C(C)(C)[C@@H]5CC[C@]43C)[C@@H]12
Key: 44

Exercise: Now this one: C=C(C)[C@@H]1CC[C@]2(C(=O)OCc3cn(-c4cccc5c(O)cccc45)nn3)CC[C@]3(C)[C@H](CC[C@@H]4[C@@]5(C)CC[C@H](OCc6cn(-c7cccc8c(O)cccc78)nn6)C(C)(C)[C@@H]5CC[C@]43C)[C@@H]12
Key: 18
